target-entity: Histone deacetylase 1 (Homo sapiens, UniProt Q13547)
Sequence (Q13547 whole entry): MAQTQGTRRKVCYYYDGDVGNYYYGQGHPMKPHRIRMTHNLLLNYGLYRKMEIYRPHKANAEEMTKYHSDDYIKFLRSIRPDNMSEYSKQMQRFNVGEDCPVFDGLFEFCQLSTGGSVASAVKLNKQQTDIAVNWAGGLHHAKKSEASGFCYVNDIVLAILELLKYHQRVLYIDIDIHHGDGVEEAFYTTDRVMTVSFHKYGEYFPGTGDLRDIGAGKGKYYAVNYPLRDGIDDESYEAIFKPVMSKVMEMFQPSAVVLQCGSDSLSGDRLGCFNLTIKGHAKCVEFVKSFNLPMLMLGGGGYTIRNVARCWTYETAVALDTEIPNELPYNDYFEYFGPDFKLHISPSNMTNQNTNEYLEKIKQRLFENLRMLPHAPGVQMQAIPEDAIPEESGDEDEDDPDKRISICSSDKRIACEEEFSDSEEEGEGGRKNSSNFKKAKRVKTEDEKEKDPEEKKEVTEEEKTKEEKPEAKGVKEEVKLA
procedure-details: Inhibition of human recombinant full length HDAC1 using (Ac)-Lys-Tyr-Lys(-acetyl)-AMC substrate after 30 mins
value-kind: IC50 (nM)
Unit nM implied. Number only.

Solved entries (count: 2):
{"sample-smiles": "O=C(CCCCCCC(=O)Nc1cc2c(Nc3ccc(F)c(Cl)c3)ncnc2s1)NO", "IC50, nM": 13.4}
{"sample-smiles": "O=C(CCCCCCC(=O)Nc1cc2c(Nc3ccc(I)cc3F)ncnc2s1)NO", "IC50, nM": 6.24}

// switching to the query compound
Task: // returns reported IC50 for input `O=C(CCCCCCC(=O)Nc1cc2c(Nc3cccc(Cl)c3F)ncnc2s1)NO`
Output: 7.78

====

Quick reference for IC50 among some molecules
target-entity: Protein deacetylase HDAC6 (Homo sapiens)
Sequence (Q9UBN7 whole entry): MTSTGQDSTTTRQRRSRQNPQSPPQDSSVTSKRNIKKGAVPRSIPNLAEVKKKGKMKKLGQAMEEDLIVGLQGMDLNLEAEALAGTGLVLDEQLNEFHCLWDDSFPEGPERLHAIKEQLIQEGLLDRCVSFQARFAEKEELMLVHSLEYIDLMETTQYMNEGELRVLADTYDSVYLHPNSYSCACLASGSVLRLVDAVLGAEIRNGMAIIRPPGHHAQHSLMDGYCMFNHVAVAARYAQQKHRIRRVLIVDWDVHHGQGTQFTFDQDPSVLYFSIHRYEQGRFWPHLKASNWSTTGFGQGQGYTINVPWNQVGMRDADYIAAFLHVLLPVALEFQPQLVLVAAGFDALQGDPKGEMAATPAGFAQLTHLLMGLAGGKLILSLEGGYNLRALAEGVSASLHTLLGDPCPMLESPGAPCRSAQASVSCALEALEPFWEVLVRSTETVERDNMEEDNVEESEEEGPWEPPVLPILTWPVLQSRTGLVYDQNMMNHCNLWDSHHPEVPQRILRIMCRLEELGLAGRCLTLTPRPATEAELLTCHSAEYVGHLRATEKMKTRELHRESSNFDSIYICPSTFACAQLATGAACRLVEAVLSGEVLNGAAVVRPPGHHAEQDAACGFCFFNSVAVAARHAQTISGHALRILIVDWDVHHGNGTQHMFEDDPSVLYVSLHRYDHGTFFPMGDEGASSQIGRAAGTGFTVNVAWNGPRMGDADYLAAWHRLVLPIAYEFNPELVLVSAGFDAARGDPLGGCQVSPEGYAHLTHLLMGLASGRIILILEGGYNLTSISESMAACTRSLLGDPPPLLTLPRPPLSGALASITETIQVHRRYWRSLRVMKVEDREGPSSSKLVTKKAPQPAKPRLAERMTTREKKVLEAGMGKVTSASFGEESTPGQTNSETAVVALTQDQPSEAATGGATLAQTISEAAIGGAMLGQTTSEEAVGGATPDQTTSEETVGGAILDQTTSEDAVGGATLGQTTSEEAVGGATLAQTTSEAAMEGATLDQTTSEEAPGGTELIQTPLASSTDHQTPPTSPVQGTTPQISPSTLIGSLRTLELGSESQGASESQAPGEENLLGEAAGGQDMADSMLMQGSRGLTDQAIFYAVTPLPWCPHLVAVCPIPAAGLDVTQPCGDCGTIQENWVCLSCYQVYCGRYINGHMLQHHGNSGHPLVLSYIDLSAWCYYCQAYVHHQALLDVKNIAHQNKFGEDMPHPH
procedure-details: Inhibition of human recombinant full length HDAC6 using (Boc-Lys (-acetyl)-AMC substrate after 30 mins
Unit nM implied. Number only.

Solved entries (count: 6):
{"sample-smiles": "O=C(CCCCCCC(=O)Nc1cc2c(Nc3ccc(N4CCCC4)c(F)c3)ncnc2s1)NO", "target-entity": "Protein deacetylase HDAC6 (Homo sapiens)", "value-kind": "IC50", "unit-text": "nM", "value-observed": 9.28}
{"sample-smiles": "O=C(CCCCCCC(=O)Nc1cc2c(Nc3ccc(F)cc3F)ncnc2s1)NO", "target-entity": "Protein deacetylase HDAC6 (Homo sapiens)", "value-kind": "IC50", "unit-text": "nM", "value-observed": 7.88}
{"sample-smiles": "O=C(CCCCCCC(=O)Nc1cc2c(Nc3ccc(N4CCCC4)cc3)ncnc2s1)NO", "target-entity": "Protein deacetylase HDAC6 (Homo sapiens)", "value-kind": "IC50", "unit-text": "nM", "value-observed": 7.19}
{"sample-smiles": "O=C(CCCCCCC(=O)Nc1cc2c(Cl)ncnc2s1)NO", "target-entity": "Protein deacetylase HDAC6 (Homo sapiens)", "value-kind": "IC50", "unit-text": "nM", "value-observed": 15.1}
{"sample-smiles": "O=C(CCCCCCC(=O)Nc1cc2c(Nc3cccc(Cl)c3)ncnc2s1)NO", "target-entity": "Protein deacetylase HDAC6 (Homo sapiens)", "value-kind": "IC50", "unit-text": "nM", "value-observed": 8.58}
{"sample-smiles": "Cc1ccc(Nc2ncnc3sc(NC(=O)CCCCCCC(=O)NO)cc23)cc1C", "target-entity": "Protein deacetylase HDAC6 (Homo sapiens)", "value-kind": "IC50", "unit-text": "nM", "value-observed": 11.4}

Task: Entry `O=C(CCCCCCC(=O)Nc1cc2c(Nc3ccc(Br)cc3F)ncnc2s1)NO` , system Protein deacetylase HDAC6 (Homo sapiens): what IC50 was measured?
Output: 8.87

Task: Follow-up entry: `O=C(CCCCCCC(=O)Nc1cc2c(Nc3ccc(Cl)c(C(F)(F)F)c3)ncnc2s1)NO`
Output: 11.5

Task: Follow-up entry: `O=C(CCCCCCC(=O)Nc1cc2c(Nc3ccc(I)cc3F)ncnc2s1)NO`
Output: 6.55

====

Quick reference for IC50 among some molecules
target-entity: UniProtKB Q9UBN7
procedure-details: Inhibition of human recombinant full length HDAC6 using (Boc-Lys (-acetyl)-AMC substrate after 30 mins
Unit nM implied. Number only.

Solved entries (count: 2):
{"sample-smiles": "O=C(CCCCCCC(=O)Nc1cc2c(Nc3cccc(Cl)c3F)ncnc2s1)NO", "IC50 / nM": 8.46}
{"sample-smiles": "Cc1ccc(Nc2ncnc3sc(NC(=O)CCCCCC(=O)NO)cc23)cc1C", "IC50 / nM": 16.9}

Task: // returns reported IC50 for input `O=C(CCCCCCC(=O)Nc1cc2c(Nc3ccccc3)ncnc2s1)NO`
Output: 12
